Please go through the items and note down their solubility (g/100 g solution).
Assay: xn = mol fraction of the nth substance listed, in the solute-free solvent
Settings: 328.15 K; x2 = 0.5
Give bare numbers.

Batch request: solubility (g/100 g solution) per item, same order as input.
1. O=C(O)c1ccc(C(=O)O)o1 + O + COCCOC
2. CC(=O)OC(c1ccccc1)C(Cl)(Cl)Cl (configuration not stated) + CC(=O)O + O

Completion:
1. 7.05
2. 7.16

Dear colleague, could you please provide solubility (g/100 g solution) for the compounds listed below?
1. O=C(O)c1ccc(C(=O)O)o1 + C1CCOC1 + O
2. O=C(O)c1ccc(C(=O)O)o1 + C1COCCO1 + O
3. CC(=O)OC(c1ccccc1)C(Cl)(Cl)Cl (configuration not stated) + CC(C)O + O
4. CC(=O)OC(c1ccccc1)C(Cl)(Cl)Cl (configuration not stated) + CCO + O
5. O=C(O)c1ccc(C(=O)O)o1 + O + COCCOCCOC

Completion:
1. 8.86
2. 6.1
3. 15.3
4. 8.15
5. 6.29

----------
Assay: xn = mol fraction of the nth substance listed, in the solute-free solvent
Conditions: 293.15 K; x2 = 0.1
For each entry below, report its solubility (g/100 g solution) value.
Answers are plain numbers.

Prompt: Value lookup for solubility (g/100 g solution); key = O=C1CCc2ccc(OCCCCN3CCN(c4cccc(Cl)c4Cl)CC3)cc2N1 + CCC(C)=O + CCCO
Completion: 1.22

Prompt: Quick check: solubility (g/100 g solution) of CCCCOc1ccc(C(=O)CCN2CCCCC2)cc1.Cl + CCO + CCCCCC ?
Completion: 3.75

Prompt: Look up solubility (g/100 g solution): COC1=CC(=O)CC(C)C12Oc1c(Cl)c(OC)cc(OC)c1C2=O (configuration not stated) + CC(C)=O + CC(C)O
Completion: 0.261

Prompt: I am curious: what solubility (g/100 g solution) value has been reported for COC1=CC(=O)CC(C)C12Oc1c(Cl)c(OC)cc(OC)c1C2=O (configuration not stated) + CCC(C)=O + CC(C)O ?
Completion: 0.254

Prompt: So what's the measured solubility (g/100 g solution) for this one? CCCCOc1ccc(C(=O)CCN2CCCCC2)cc1.Cl + CO + C1CCOC1
Completion: 5.64

Prompt: // solubility (g/100 g solution) lookup, key: COC1=CC(=O)CC(C)C12Oc1c(Cl)c(OC)cc(OC)c1C2=O (configuration not stated) + CC(=O)CC(C)C + CC(C)O
Completion: 0.226

Prompt: Please give the measured solubility (g/100 g solution) for this molecule: O=C1CCc2ccc(OCCCCN3CCN(c4cccc(Cl)c4Cl)CC3)cc2N1 + CCC(C)=O + CCOC(C)=O
Completion: 1.04

Prompt: Data request, read-out solubility (g/100 g solution), for O=C1CCc2ccc(OCCCCN3CCN(c4cccc(Cl)c4Cl)CC3)cc2N1 + CCC(C)=O + CC(C)=O
Completion: 1.44

Value sought for every listed molecule: solubility (g/100 g solution).
1. CCCCOc1ccc(C(=O)CCN2CCCCC2)cc1.Cl + CCO + CCOC(C)=O
2. CCCCOc1ccc(C(=O)CCN2CCCCC2)cc1.Cl + CCO + O
3. O=C(O)c1ccc(C(=O)O)o1 + C1CCOC1 + O

Completion:
7.23
44.6
1.53

Prompt: Sample O=C(O)C1CSCN1 (configuration not stated) + O + CC#N — what was its solubility (g/100 g solution)?
Completion: 0.0189

----------
Experiment: xn = mol fraction of the nth substance listed, in the solute-free solvent
Settings: 308.15 K; x2 = 0.2
For each of the compounds below, state its solubility (g/100 g solution).
Numbers only.

Illustrative cases are given below, each with its answer.
Prompt: So what's the measured solubility (g/100 g solution) for this one? COC1=CC(=O)CC(C)C12Oc1c(Cl)c(OC)cc(OC)c1C2=O (centres undefined) + CC(=O)CC(C)C + CC(C)O
Completion: 0.683

Prompt: Requested read-out: solubility (g/100 g solution). Entry: O=C1CCc2ccc(OCCCCN3CCN(c4cccc(Cl)c4Cl)CC3)cc2N1 + CCC(C)=O + CC(C)=O
Completion: 2.83

Prompt: Entry under review: COC1=CC(=O)CC(C)C12Oc1c(Cl)c(OC)cc(OC)c1C2=O (centres undefined) + CCC(C)=O + CC(C)O . Reported solubility (g/100 g solution)?
Completion: 0.77

---
Prompt: Item under review: O=C(O)c1ccc(C(=O)O)o1 + O + COCCOCCOC . Reported solubility (g/100 g solution)?
Completion: 2.15

----------
Assay: xn = mol fraction of the nth substance listed, in the solute-free solvent
Settings: 298.15 K; x2 = 0.7
assayReadout: solubility (g/100 g solution)
Give bare numbers.

Prompt: So what does the record say about solubility (g/100 g solution) for CC(=O)OC(c1ccccc1)C(Cl)(Cl)Cl (centres undefined) + CCO + O ?
Completion: 3

Prompt: Can you look up the measured solubility (g/100 g solution) of CCCCOc1ccc(C(=O)CCN2CCCCC2)cc1.Cl + CCO + O for me?
Completion: 44.4

Batch of 2 compounds: report solubility (g/100 g solution) for each.
1. CCCCOc1ccc(C(=O)CCN2CCCCC2)cc1.Cl + CCO + CCOC(C)=O
2. COC1=CC(=O)CC(C)C12Oc1c(Cl)c(OC)cc(OC)c1C2=O (centres undefined) + CCC(C)=O + CC(C)O

Completion:
[30.6, 2.07]

----------
Exercise: for every item that follows, state its recorded solubility (g/100 g solution).
Test: xn = mol fraction of the nth substance listed, in the solute-free solvent
Settings: 308.15 K; x2 = 0.5
Give bare numbers.

Prompt: Please report the recorded solubility (g/100 g solution) for O=C(O)c1ccc(C(=O)O)o1 + O + COCCOC .
Completion: 5.75

Prompt: Field request: solubility (g/100 g solution) | item: O=C1CCc2ccc(OCCCCN3CCN(c4cccc(Cl)c4Cl)CC3)cc2N1 + CCC(C)=O + CCCO
Completion: 4.81

Prompt: Quick check: solubility (g/100 g solution) of O=C(O)c1ccc(C(=O)O)o1 + O + COCCOCCOC ?
Completion: 5.35

Prompt: So what does the record say about solubility (g/100 g solution) for CCCCOc1ccc(C(=O)CCN2CCCCC2)cc1.Cl + CO + C1CCOC1 ?
Completion: 36.5

// input: 2 compounds below; output: solubility (g/100 g solution) for each
1. COC1=CC(=O)CC(C)C12Oc1c(Cl)c(OC)cc(OC)c1C2=O (configuration not stated) + CC(=O)CC(C)C + CC(C)O
2. CC(=O)OC(c1ccccc1)C(Cl)(Cl)Cl (configuration not stated) + CC(C)O + O

Completion:
1.19
4.9

Provide solubility (g/100 g solution) values for the following items, in order.
1. CCCCOc1ccc(C(=O)CCN2CCCCC2)cc1.Cl + CCO + CCCCCC
2. O=C(O)c1ccc(C(=O)O)o1 + C1CCOC1 + O
3. COC1=CC(=O)CC(C)C12Oc1c(Cl)c(OC)cc(OC)c1C2=O (configuration not stated) + CC(C)=O + CC(C)O
4. O=C1CCc2ccc(OCCCCN3CCN(c4cccc(Cl)c4Cl)CC3)cc2N1 + CCC(C)=O + CCOC(C)=O
5. COC1=CC(=O)CC(C)C12Oc1c(Cl)c(OC)cc(OC)c1C2=O (configuration not stated) + CCC(C)=O + CC(C)O
6. CC(=O)OC(c1ccccc1)C(Cl)(Cl)Cl (configuration not stated) + CC(=O)O + O
7. CCCCOc1ccc(C(=O)CCN2CCCCC2)cc1.Cl + CCO + O
8. O=C(O)c1ccc(C(=O)O)o1 + C1COCCO1 + O

Completion:
[24.8, 7.48, 2.16, 2.66, 1.85, 2.27, 51.8, 4.77]

----------
Provide the reported solubility (g/100 g solution) of each item.
Experiment: xn = mol fraction of the nth substance listed, in the solute-free solvent
Conditions: 318.15 K; x2 = 0.4

Worked set:
Prompt: Need solubility (g/100 g solution), item O=C(O)c1ccc(C(=O)O)o1 + O + COCCOCCOC
Completion: 4.59

Prompt: If you can, please state the reported solubility (g/100 g solution) value of CCCCOc1ccc(C(=O)CCN2CCCCC2)cc1.Cl + CCO + CCCCCC .
Completion: 24

Prompt: Look at this molecule and give its reported solubility (g/100 g solution). COC1=CC(=O)CC(C)C12Oc1c(Cl)c(OC)cc(OC)c1C2=O (configuration not stated) + CC(C)=O + CC(C)O
Completion: 2.17

Prompt: I would be grateful if you could share the reported solubility (g/100 g solution) for COC1=CC(=O)CC(C)C12Oc1c(Cl)c(OC)cc(OC)c1C2=O (configuration not stated) + CCC(C)=O + CC(C)O .
Completion: 1.93

Prompt: Can you look up the measured solubility (g/100 g solution) of CC(=O)OC(c1ccccc1)C(Cl)(Cl)Cl (configuration not stated) + CC(=O)O + O for me?
Completion: 1.81

Prompt: Bench note: what solubility (g/100 g solution) did O=C1CCc2ccc(OCCCCN3CCN(c4cccc(Cl)c4Cl)CC3)cc2N1 + CCC(C)=O + CCCO show?
Completion: 6.36

---
Prompt: Which solubility (g/100 g solution) is listed for CC(=O)OC(c1ccccc1)C(Cl)(Cl)Cl (configuration not stated) + CCO + O ?
Completion: 3.79
